Catalogue of GI50 readings, one per entry.
System: XF498
experiment.notes: NCI tumour cell line growth inhibition, 48 h
Active and inactive are the calls of the source. Cut-off read from the data, not from the text of the source: active = GI50 up to about 1.1 µM and inactive = higher.

CCCCn1c(-c2ccccc2)cs/c1=N\NC(=O)Cn1c(C)nc2ccccc21 ... 31.9 µM (inactive)

Here is another compound to look at.
Record for CC(=O)Oc1c(-c2ccccc2)[nH]c2cc([N+](=O)[O-])c(/C(Cl)=C/c3ccccc3)cc12 under target or system XF498: GI50 reported as 4.36 µM (inactive)

---

Catalogue of GI50 readings, one per entry.
Tested on: SNB-19
experiment.notes: NCI tumour cell line growth inhibition, 48 h
Calls of active or inactive are those of the source. Rule as the data show it: active = GI50 up to about 1.1 µM and inactive = higher.

O=C(/C=C/c1c(O)ccc2ccccc12)c1ccc([N+](=O)[O-])cc1 ... > 88.9 µM (inactive)
CC1(C)OC(=O)N(c2ccccc2)C12C=Cc1cc([N+](=O)[O-])ccc1O2 (configuration not stated) ... 35.5 µM (inactive)
Cn1c(C2CC(C)(C)c3c2c2ccccc2n3C)cc2ccccc21 (configuration not stated) ... > 304 µM (inactive)
O=C(OCC(Cl)(Cl)Cl)N1CC[C@@H](C2CCCCC2)C1 ... 19.7 µM (inactive)
Cc1cccc(Cl)c1NC(=O)/C=C/c1ccccc1 ... > 100 µM (inactive)
CCOP1(=O)OCC2OC(n3cnc4c(N)ncnc43)C(O)C2O1.c1ccccc1 (configuration not stated) ... > 100 µM (inactive)

Item: COc1cc(/C=C/C(C)=O)ccc1OP(=O)(O)O | GI50: > 100 µM (inactive)

Item: CN(Cc1cnc2nc(N)nc(N)c2n1)c1ccc(C(=O)NC23CC4CC(CC(C4)C2)C3)cc1 | GI50: 6.52 µM (inactive)

Item: COc1ccc2c3c1OC1c4[nH]c5ccccc5c4CC4(O)C(C2)N(C)CCC314 (configuration not stated) | GI50: 32.4 µM (inactive)

Item: CCC(=O)CCC1=Nc2nnc(CCCCc3nnc4n3C(=O)C(CCC(=O)CC)=N4)n2C1=O | GI50: > 100 µM (inactive)

Item: Cc1ccc(SC2=C(N(C)C)C(=O)c3ccccc3C2=O)cc1 | GI50: 12.3 µM (inactive)

Item: CC(C)CC(NP(=O)(O)OC1OC(C)C(O)C(O)C1O)C(=O)NC(Cc1c[nH]c2ccccc12)C(=O)O (configuration not stated) | GI50: > 100 µM (inactive)

Item: N/C(=N\c1ccc(Cl)cc1)NS(=O)(=O)c1cc(Cl)c(Oc2ccc([N+](=O)[O-])cc2Cl)c(Cl)c1 | GI50: 17.6 µM (inactive)

Item: c1ccc(CN2CCC(CNc3ncnc4ccccc34)C2)cc1 (configuration not stated) | GI50: > 100 µM (inactive)

Item: O=C1CSC(=S)N1c1ccc(F)cc1F | GI50: 76.6 µM (inactive)

Item: Cc1c(C(=O)N2CCN(c3ccc([N+](=O)[O-])cc3)CC2)[n+]([O-])c2cc(Cl)c(Cl)cc2[n+]1[O-] | GI50: 18.3 µM (inactive)
